tested_target: B1R receptor of rats (rB1R) (Rattus norvegicus)
Construct: host or cells: CHO K1 cells
Sequence (P97583 whole entry): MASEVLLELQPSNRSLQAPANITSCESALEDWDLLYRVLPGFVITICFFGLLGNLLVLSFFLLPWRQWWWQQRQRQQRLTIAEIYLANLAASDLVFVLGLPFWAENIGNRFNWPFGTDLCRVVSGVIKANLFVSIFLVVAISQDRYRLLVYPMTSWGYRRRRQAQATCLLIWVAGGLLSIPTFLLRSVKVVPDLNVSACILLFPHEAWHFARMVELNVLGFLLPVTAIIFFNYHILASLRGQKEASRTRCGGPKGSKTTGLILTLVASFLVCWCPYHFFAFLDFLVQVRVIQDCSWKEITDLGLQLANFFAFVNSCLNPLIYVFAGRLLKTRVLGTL
experiment_summary: FLIPR Ca2+ assay (Fluo-4) on CHO K1 cells stably transfected with the B1R gene of rats
Format: cell-based
condition_parameters: CHO-K1; test substance 10 μM; agonist Des-Arg9-bradykinin 100 nM; % inhibition compared to the maximum achievable inhibition
From the text: The agonistic or antagonistic action of compounds can be quantified on the bradykinin 1 receptor (B1R) of humans and rats with ectopically expressing cell lines (CHO K1 cells) and with the aid of a Ca^2+-sensitive dye (Fluo-4) in the fluorescent imaging plate reader (FLIPR). […] The agonistic or antagonistic action of substances can be determined on the bradykinin 1 receptor (B1R) of humans and rats by means of the following assay. […]
Please provide measured inhibition at 10 µM for the entries that follow.
Answers are plain numbers, in %.

Look over these answered cases.
CCC1c2cccn2CCN1C(=O)COCC1CCCCN1S(=O)(=O)c1c(C)cc(C)cc1C (stereo not drawn) [(55)] = 103
COc1cc(C)c(S(=O)(=O)N2CCCCC2CCCC(=O)N2CCn3c(CCc4cccnc4)ccc3C2)c(C)c1 (stereo not drawn) [(103)] = 100
CCC1c2cccn2CCN1C(=O)COCC1CCCCN1S(=O)(=O)c1c(C)cc(OC)cc1C (stereo not drawn) [(70)] = 103
Cc1cc(C)c(S(=O)(=O)N2CCCCC2COCC(=O)N2CCn3cccc3C2c2ccccc2)c(C)c1 (stereo not drawn) [(39)] = 99
COc1cccc(C2c3cccn3CCN2C(=O)COCC2CCCCN2S(=O)(=O)c2c(C)cc(OC)cc2C)c1 (stereo not drawn) [(31)] = 98
O=C(CC1CCCCN1S(=O)(=O)c1cccc(C(F)(F)F)c1)N1CCn2cc(-c3ccncc3)nc2C1 (stereo not drawn) [(104)] = 49
COc1cc(C)c(S(=O)(=O)N2CCCCC2COCC(=O)N2CCn3cc(CCc4ccncc4)nc3C2)c(C)c1 (stereo not drawn) [(115)] = 98
COc1cc(C)c(S(=O)(=O)N2CCCCC2COCC(=O)N2CCn3ccnc3C2)c(C)c1 (stereo not drawn) [(23)] = 99

Give inhibition at 10 µM for each listed item.
1. O=C(CC1CCCCN1S(=O)(=O)c1cccc(C(F)(F)F)c1)N1CCn2c(CCCN3CCCC3)ccc2C1 (stereo not drawn) [(17)]
2. Cc1cc(C)c(S(=O)(=O)N2CCCCC2COCC(=O)N2CCn3cccc3C2CCc2ccccc2)c(C)c1 (stereo not drawn) [(45)]
3. COc1cc(C)c(S(=O)(=O)N2CCCCC2COCC(=O)N2CCn3cccc3C2c2ccc(C(F)(F)F)cc2F)c(C)c1 (stereo not drawn) [(32)]
4. COc1cc(C)c(S(=O)(=O)N2CCCCC2CCC(=O)N2CCn3c(Cc4ccncc4)ccc3C2)c(C)c1 (stereo not drawn) [(99)]
5. COc1cc(C)c(S(=O)(=O)N2CCCCC2CCC(=O)N2CCn3c(ccc3-c3ccncc3)C2)c(C)c1 (stereo not drawn) [(96)]
6. Cc1cc(C)c(S(=O)(=O)N2CCCCC2COCC(=O)N2CCn3cccc3C2C(C)C)c(C)c1 (stereo not drawn) [(57)]

1: 75; 2: 98; 3: 99; 4: 102; 5: 96; 6: 103
